Target: HLA-A*32:01
Test: IEDB peptide-MHC binding, purified MHC/competitive/radioactivity; filed as Kd, often an IC50 or EC50 that approximates it; bounds were set here for any values at or beyond the usual limits of such assays
Conditions: source organism: Mammarenavirus brazilense
pKd: −log10 of the molar value.
Provide the recorded pKd for the entries that follow.

**Q:** Which pKd value is on record for "GLNISGYNY" ?
**A:** 4.78

**Q:** Which pKd value is on record for "ICLSGEGWPY" ?
**A:** ≤ 4.67

**Q:** Which pKd value is on record for "SLTEEFYHSY" ?
**A:** ≤ 4.58

---

Molecular target: HLA-A*68:02
Test: IEDB peptide-MHC binding, purified MHC/competitive/fluorescence; filed as Kd, often an IC50 or EC50 that approximates it; bounds were set here for any values at or beyond the usual limits of such assays
Details: source organism: Human immunodeficiency virus 1
Parameter: Kd (nM)
Kindly answer with a numeric value in nM, unit omitted.

**Q:** Form field - read-out: Kd; system: HLA-A*68:02; submitted item: "EVKSLFNTV"
**A:** 0.4

**Q:** Form field - read-out: Kd; system: HLA-A*68:02; submitted item: "EIKDTEEAL"
**A:** 183

---

Molecular target: HLA-A*02:01
Assay: IEDB peptide-MHC binding, purified MHC/competitive/fluorescence; filed as Kd, often an IC50 or EC50 that approximates it; bounds were set here for any values at or beyond the usual limits of such assays
Conditions: source organism: Helicobacter pylori 26695
Parameter: pKd
pKd is defined as minus the log10 of a concentration measured in mol/L.

**Q:** Which pKd value is on record for "GIVCYNEEV" ?
**A:** 7.42

---

Molecular target: HLA-B*44:02
Assay: IEDB peptide-MHC binding, purified MHC/competitive/radioactivity; filed as Kd, often an IC50 or EC50 that approximates it; bounds were set here for any values at or beyond the usual limits of such assays
Conditions: source organism: Mammarenavirus machupoense
Parameter: Kd (µM)
Kindly answer with a numeric value in µM, unit omitted.

**Q:** Which Kd value is on record for "EEPAALLPLS" ?
**A:** 3.41

---

Biological target: HLA-B*39:01
Test: IEDB peptide-MHC binding, purified MHC/competitive/fluorescence; filed as Kd, often an IC50 or EC50 that approximates it; bounds were set here for any values at or beyond the usual limits of such assays
Conditions: source organism: Fowlpox virus
Parameter: Kd

**Q:** Which Kd value is on record for "VIMWYNYLF" ?
**A:** ≥ 20 µM

---

Target: HLA-A*25:01
Assay: IEDB peptide-MHC binding, purified MHC/competitive/fluorescence; bounds were set here for any values at or beyond the usual limits of such assays
Settings: source organism: Homo sapiens
Parameter: IC50

**Q:** Form field - read-out: IC50; system: HLA-A*25:01; submitted item: "LPSCPTNFCIF"
**A:** ≥ 20 µM

---

Molecular target: HLA-A*03:01
Test: IEDB peptide-MHC binding, purified MHC/competitive/fluorescence; filed as Kd, often an IC50 or EC50 that approximates it; bounds were set here for any values at or beyond the usual limits of such assays
Conditions: source organism: Vaccinia virus WR
Parameter: pKd
pKd is defined as minus the log10 of a concentration measured in mol/L.

**Q:** Which pKd value is on record for "ITMVNSLTY" ?
**A:** 7.41

---

Target: HLA-B*46:01
Experiment: IEDB peptide-MHC binding, purified MHC/direct/fluorescence; filed as Kd, often an IC50 or EC50 that approximates it; bounds were set here for any values at or beyond the usual limits of such assays
Settings: source organism: Mycobacterium tuberculosis C
Parameter: Kd

**Q:** Which Kd value is on record for "TPKIRFWHV" ?
**A:** ≥ 20 µM

---

Target: HLA-B*44:02
Experiment: IEDB peptide-MHC binding, purified MHC/direct/fluorescence; filed as Kd, often an IC50 or EC50 that approximates it; bounds were set here for any values at or beyond the usual limits of such assays
Conditions: source organism: Mycobacterium tuberculosis C
pKd: −log10 of the molar value.
Parameter: pKd

**Q:** Which pKd value is on record for "TPKIRFWHV" ?
**A:** ≤ 4.70

---

Molecular target: HLA-B*40:01
Assay: IEDB peptide-MHC binding, purified MHC/direct/fluorescence; filed as Kd, often an IC50 or EC50 that approximates it; bounds were set here for any values at or beyond the usual limits of such assays
Settings: source organism: Campylobacter jejuni RM1221
Parameter: Kd

**Q:** Which Kd value is on record for "KSNEKNMDF" ?
**A:** ≥ 20 µM

---

Target: HLA-B*08:01
Test: IEDB peptide-MHC binding, purified MHC/direct/fluorescence; filed as Kd, often an IC50 or EC50 that approximates it; bounds were set here for any values at or beyond the usual limits of such assays
Details: source organism: Tick-borne encephalitis virus
Parameter: pKd
pKd is defined as minus the log10 of a concentration measured in mol/L.

**Q:** Which pKd value is on record for "WPWNAREDV" ?
**A:** 5.12

---

Target: HLA-B*58:01
Test: IEDB peptide-MHC binding, purified MHC/competitive/radioactivity; filed as Kd, often an IC50 or EC50 that approximates it; bounds were set here for any values at or beyond the usual limits of such assays
Details: source organism: Dengue virus 3 Martinique/1243/1999
Parameter: Kd (µM)
Kindly answer with a numeric value in µM, unit omitted.

**Q:** Form field - read-out: Kd; system: HLA-B*58:01; submitted item: "GMSKEPGVVS"
**A:** 1.15

**Q:** Form field - read-out: Kd; system: HLA-B*58:01; submitted item: "KASLIEVKTC"
**A:** 0.27

**Q:** Form field - read-out: Kd; system: HLA-B*58:01; submitted item: "MAMTDTTPF"
**A:** 0.0107

**Q:** Form field - read-out: Kd; system: HLA-B*58:01; submitted item: "LASNAICSAV"
**A:** 0.587

---

Target: HLA-A*69:01
Experiment: IEDB peptide-MHC binding, purified MHC/direct/fluorescence; filed as Kd, often an IC50 or EC50 that approximates it; bounds were set here for any values at or beyond the usual limits of such assays
Conditions: source organism: Influenza A virus (A/chicken/Hubei/wm/1997(H5N1))
pKd: −log10 of the molar value.
Parameter: pKd

**Q:** Form field - read-out: pKd; system: HLA-A*69:01; submitted item: "EKPKFLPDL"
**A:** ≤ 4.70

---

Molecular target: HLA-A*26:01
Assay: IEDB peptide-MHC binding, purified MHC/competitive/radioactivity; filed as Kd, often an IC50 or EC50 that approximates it; bounds were set here for any values at or beyond the usual limits of such assays
Details: source organism: Mammarenavirus machupoense
Parameter: Kd

**Q:** Which Kd value is on record for "LSSGEPHCA" ?
**A:** ≥ 77.9 µM

---

Target: HLA-A*02:12
Experiment: IEDB peptide-MHC binding, purified MHC/competitive/fluorescence; filed as Kd, often an IC50 or EC50 that approximates it; bounds were set here for any values at or beyond the usual limits of such assays
Settings: source organism: Human immunodeficiency virus 1
Parameter: Kd (µM)
Kindly answer with a numeric value in µM, unit omitted.

**Q:** Which Kd value is on record for "GLGQHIYET" ?
**A:** 0.0755

---

Molecular target: HLA-A*02:01
Assay: IEDB peptide-MHC binding, purified MHC/direct/fluorescence; filed as Kd, often an IC50 or EC50 that approximates it; bounds were set here for any values at or beyond the usual limits of such assays
Details: source organism: Coxiella burnetii
Parameter: pKd
pKd is defined as minus the log10 of a concentration measured in mol/L.

**Q:** Form field - read-out: pKd; system: HLA-A*02:01; submitted item: "YQLGDYFFV"
**A:** 8.82

---

Molecular target: HLA-B*40:01
Experiment: IEDB peptide-MHC binding, purified MHC/competitive/radioactivity; filed as Kd, often an IC50 or EC50 that approximates it; bounds were set here for any values at or beyond the usual limits of such assays
Conditions: source organism: Dengue virus 2 Jamaica/1409/1983
Parameter: pKd
pKd is defined as minus the log10 of a concentration measured in mol/L.

**Q:** Which pKd value is on record for "FETTMRGAKR" ?
**A:** 5.45

---

Biological target: HLA-B*27:03
Assay: IEDB peptide-MHC binding, purified MHC/competitive/fluorescence; filed as Kd, often an IC50 or EC50 that approximates it; bounds were set here for any values at or beyond the usual limits of such assays
Settings: source organism: Neembucu hantavirus
Parameter: Kd

**Q:** Which Kd value is on record for "ETESATLFT" ?
**A:** ≥ 20 µM

---

Target: HLA-A*24:03
Experiment: IEDB peptide-MHC binding, purified MHC/direct/fluorescence; filed as Kd, often an IC50 or EC50 that approximates it; bounds were set here for any values at or beyond the usual limits of such assays
Conditions: source organism: Zaire ebolavirus
pKd: −log10 of the molar value.
Parameter: pKd

**Q:** Which pKd value is on record for "RDRFKRTSF" ?
**A:** ≤ 4.70

**Q:** Which pKd value is on record for "HPLARTAKV" ?
**A:** ≤ 4.70

**Q:** Which pKd value is on record for "KEGKLQCRI" ?
**A:** ≤ 4.70
